Recorded values, source ChEMBL document CHEMBL2016494.

Target chain: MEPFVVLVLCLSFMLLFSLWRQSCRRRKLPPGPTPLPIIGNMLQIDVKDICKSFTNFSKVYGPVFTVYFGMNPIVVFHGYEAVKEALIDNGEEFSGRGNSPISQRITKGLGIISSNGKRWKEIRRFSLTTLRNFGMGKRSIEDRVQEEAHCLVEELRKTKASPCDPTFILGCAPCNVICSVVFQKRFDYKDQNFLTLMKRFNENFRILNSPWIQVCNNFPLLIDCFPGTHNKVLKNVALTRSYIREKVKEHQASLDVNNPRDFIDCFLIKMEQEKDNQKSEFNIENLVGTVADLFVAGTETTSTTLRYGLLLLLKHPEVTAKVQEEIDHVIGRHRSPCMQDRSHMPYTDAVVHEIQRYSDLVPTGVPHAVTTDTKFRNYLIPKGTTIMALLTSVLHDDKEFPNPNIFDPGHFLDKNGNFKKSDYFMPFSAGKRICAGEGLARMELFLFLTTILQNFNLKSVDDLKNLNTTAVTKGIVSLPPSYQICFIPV
pIC50: −log10 of the molar value.
observation type: pIC50

record smiles	reported
COc1ccc2[nH]c(SCc3ccccc3)nc2c1	< 4.30

====

test summary: Half life in human liver microsomes by LC-MS/MS analysis
test conditions: liver microsomes

record smiles	half-life, h
COc1ccc2nc(SCc3ccc(C(=O)O)cc3)[nH]c2c1	0.134
COc1ccc2[nH]c(SCCCC(=O)O)nc2c1	2

====

test system: UniProt:P05177
Sequence (P05177 whole entry): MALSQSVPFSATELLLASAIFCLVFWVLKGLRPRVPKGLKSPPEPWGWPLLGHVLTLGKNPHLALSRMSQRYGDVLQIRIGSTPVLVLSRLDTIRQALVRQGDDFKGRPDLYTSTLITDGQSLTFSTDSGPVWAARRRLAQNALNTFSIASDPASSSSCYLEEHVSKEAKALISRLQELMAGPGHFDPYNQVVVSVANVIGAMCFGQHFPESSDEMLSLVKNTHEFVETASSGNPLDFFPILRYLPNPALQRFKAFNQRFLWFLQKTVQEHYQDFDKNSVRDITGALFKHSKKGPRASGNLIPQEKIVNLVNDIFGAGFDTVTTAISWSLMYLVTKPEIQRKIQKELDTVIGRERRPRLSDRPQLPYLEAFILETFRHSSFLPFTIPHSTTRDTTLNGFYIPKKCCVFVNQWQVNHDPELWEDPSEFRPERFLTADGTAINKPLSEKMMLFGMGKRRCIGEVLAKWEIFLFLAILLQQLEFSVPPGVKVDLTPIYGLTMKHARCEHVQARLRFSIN
test summary: Inhibition of CYP1A2 in human liver microsomes using phenacetin preincubated for 5 mins by LC-MS/MS analysis
observation type: IC50 (nM)

record smiles	test system	reported
CCCSc1nc2ccc(OC)cc2[nH]1	UniProt:P05177	930

====

test system: Cytochrome P450 2B6 (Homo sapiens, UniProt P20813)
Sequence (P20813 whole entry): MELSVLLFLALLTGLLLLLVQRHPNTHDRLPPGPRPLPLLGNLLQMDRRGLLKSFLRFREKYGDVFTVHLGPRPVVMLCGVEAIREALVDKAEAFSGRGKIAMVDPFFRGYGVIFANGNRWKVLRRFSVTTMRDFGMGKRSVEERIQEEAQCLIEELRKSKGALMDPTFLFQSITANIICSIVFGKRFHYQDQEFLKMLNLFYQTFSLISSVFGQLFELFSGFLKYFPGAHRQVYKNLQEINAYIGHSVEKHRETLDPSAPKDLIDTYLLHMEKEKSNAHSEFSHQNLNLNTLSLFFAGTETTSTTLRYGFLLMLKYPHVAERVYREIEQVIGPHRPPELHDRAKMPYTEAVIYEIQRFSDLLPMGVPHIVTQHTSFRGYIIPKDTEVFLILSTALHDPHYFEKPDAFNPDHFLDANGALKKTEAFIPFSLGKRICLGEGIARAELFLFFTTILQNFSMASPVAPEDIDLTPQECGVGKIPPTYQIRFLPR
pIC50: −log10 of the molar value.
observation type: pIC50

record smiles	test system	result modifier	reported
COc1ccc2[nH]c(SCc3ccccc3)nc2c1	Cytochrome P450 2B6 (Homo sapiens, UniProt P20813)	<	4.30
COc1ccc2[nH]c(SCCCC(=O)O)nc2c1	Cytochrome P450 2B6 (Homo sapiens, UniProt P20813)	=	4.54

====

test summary: Apparent intrinsic clearance in human liver microsomes by LC-MS/MS analysis
test conditions: liver microsomes
The entries below come with measured microsomal CLint values attached.

record smiles	result modifier	microsomal CLint [µL/min/mg]
COc1ccc2nc(SCc3ccc(C(=O)O)cc3)[nH]c2c1	=	860
COc1ccc2[nH]c(SCCCC(=O)O)nc2c1	<	57.8
